Data provenance is BigSolDB 2.1.

CONDITION SUMMARY: in 2-pentanol, 298.28 K
READOUT LABEL: solubility (mole fraction)

COC(=O)/C=C(\C)N[C@@H](C(=O)[O-])c1ccc(O)cc1.[K+] = 7.86e-05

---

CONDITION SUMMARY: in sec-butanol, 328.26 K
READOUT LABEL: solubility (mole fraction)

COC(=O)/C=C(\C)N[C@@H](C(=O)[O-])c1ccc(O)cc1.[K+] = 0.000132

---

CONDITION SUMMARY: in 2-pentanol, 293.25 K
READOUT LABEL: solubility (mole fraction)

COC(=O)/C=C(\C)N[C@@H](C(=O)[O-])c1ccc(O)cc1.[K+] = 6.22e-05
